molecular target: Calcium/calmodulin-dependent protein kinase type II subunit gamma (Homo sapiens); details: at 10 µM
MEASURED_ENDPOINT: residual activity (%)
Field format: number, assumed %, no unit text.

Looking for the measured residual activity of `CC[n+]1c(/C=C/N(C)c2ccccc2)n(-c2ccccc2)c2ccc(-c3nc4ccccc4s3)cc21` , can you help?
99

Looking for the measured residual activity of `c1ccc2c(-c3ccncc3)c[nH]c2c1` , can you help?
26

Looking for the measured residual activity of `O=C1c2ccccc2-[n+]2ccc3c([nH]c4ccccc43)c21` , can you help?
78

Looking for the measured residual activity of `COc1cc2ncc(-c3ccccc3)nc2cc1OC` , can you help?
78

Looking for the measured residual activity of `Cn1cc(/C=C2\C(=O)Nc3ccc(S(N)(=O)=O)cc32)c2ccccc21` , can you help?
-1

Looking for the measured residual activity of `O=c1c2ccccc2[nH]c(=S)n1CCN1CCC(=C(c2ccc(F)cc2)c2ccc(F)cc2)CC1` , can you help?
100

Looking for the measured residual activity of `COc1ccc(CNc2nc(N(CCO)CCO)nc3c2ncn3C(C)C)cc1` , can you help?
63

Looking for the measured residual activity of `COc1ccc(C(=O)Nc2sc3c(c2C(N)=O)CCCC3)cc1OC` , can you help?
66

Looking for the measured residual activity of `N#C/C(=C(\N)Sc1ccc(N)cc1)c1ccccc1C(F)(F)F` , can you help?
86

Looking for the measured residual activity of `O=C1Nc2ccc(Br)cc2/C1=C\c1cc2c([nH]1)CCCC2` , can you help?
16

Looking for the measured residual activity of `Cc1cc2ncc(-c3ccccc3)nc2cc1C` , can you help?
94

---

target: Casein kinase I isoform delta (Homo sapiens) (UniProt P48730); settings: at 1 µM
Sequence (P48730 whole entry, looked up, canonical isoform): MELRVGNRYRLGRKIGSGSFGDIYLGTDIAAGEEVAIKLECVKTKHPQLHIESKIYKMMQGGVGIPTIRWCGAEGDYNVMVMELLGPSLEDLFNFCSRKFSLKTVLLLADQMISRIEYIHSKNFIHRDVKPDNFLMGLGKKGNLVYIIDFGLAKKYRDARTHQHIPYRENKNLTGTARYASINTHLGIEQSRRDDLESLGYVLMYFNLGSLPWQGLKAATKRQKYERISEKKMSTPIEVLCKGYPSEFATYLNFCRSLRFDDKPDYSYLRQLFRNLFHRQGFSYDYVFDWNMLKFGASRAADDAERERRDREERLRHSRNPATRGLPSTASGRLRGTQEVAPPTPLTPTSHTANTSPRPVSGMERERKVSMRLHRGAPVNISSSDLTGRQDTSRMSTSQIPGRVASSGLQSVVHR
Description: Millipore: Percentage of residual kinase activity of CSNK1D at 1uM relative to control. Control inhibitor: Jnk Inhibitor II at 100.0uM. Buffer: 8 mM MOPS pH 7.0, 0.2 mM EDTA
Think of 80% as a floor: if residual activity stands on it or above, it is TRUE; beneath it, FALSE.

Decide: residual activity of `COc1cc2ncnc(Nc3ccc(Oc4ccccc4)cc3)c2cc1OC` >= 80%?
TRUE

Decide: residual activity of `c1ccc(-c2n[nH]cc2-c2ccnc3ccccc23)nc1` >= 80%?
FALSE

Decide: residual activity of `c1ccc(-c2n[nH]c3c2oc2ccccc23)cc1` >= 80%?
FALSE

Decide: residual activity of `COc1ccc(OC)c2c(=S)c3ccccc3[nH]c12` >= 80%?
TRUE

Decide: residual activity of `Oc1n[nH]c2nnc(-c3c(-c4ccccc4)nn4ccccc34)cc12` >= 80%?
TRUE

---

Consider the following compounds; for each one, report its residual activity.
molecular target: Eukaryotic elongation factor 2 kinase (Homo sapiens); settings: at 10 µM
Description: Millipore: Percentage of residual kinase activity of EEF2K at 10uM relative to control. Control inhibitor: Phosphoric acid* at 0.3uM. Buffer: 8 mM MOPS pH 7.0, 0.2 mM EDTA
Field format: number, assumed %, no unit text.

Looking for the measured residual activity of `COc1cc2ncnc(Nc3ccc(Oc4ccccc4)cc3)c2cc1OC` , can you help?
132

Looking for the measured residual activity of `CCC(=O)Nc1ccc2ncnc(Nc3cccc(Br)c3)c2c1` , can you help?
107

Looking for the measured residual activity of `O=C1Nc2cc(Br)ccc2/C1=C1/Nc2ccccc2/C1=N\O` , can you help?
89

Looking for the measured residual activity of `O=C(Nc1cccc(Nc2nccc(Nc3cccc(C(F)(F)F)c3)n2)c1)C1CC1` , can you help?
101

Looking for the measured residual activity of `O=C1NC(=O)/C(=C\c2ccc3nccnc3c2)S1` , can you help?
91

---

biological target: Serine/threonine-protein kinase 10 (Homo sapiens); conditions: at 1 µM
Threshold 80%. residual activity below it: 1.0. residual activity at it or above: 0.0.

residual activity strictly < 80% for this compound? `COc1cccc(-c2cc(=O)c3ccccc3o2)c1N`
0.0

residual activity strictly < 80% for this compound? `N#C/C(=C(\N)Sc1ccc(N)cc1)c1ccccc1C(F)(F)F`
1.0

residual activity strictly < 80% for this compound? `Nc1nc(Nc2ccc(S(N)(=O)=O)cc2)nn1C(=S)Nc1c(F)cccc1F`
1.0

residual activity strictly < 80% for this compound? `Oc1ccc(Nc2nc(-c3ccc(Cl)cc3)cs2)cc1`
0.0

residual activity strictly < 80% for this compound? `CN(C)c1ccc(/C=C2\C(=O)Nc3ccccc32)cc1`
0.0

residual activity strictly < 80% for this compound? `CC(C)n1cnc2c(NCc3ccccc3)nc(NCCCO)nc21`
0.0

residual activity strictly < 80% for this compound? `O=C(O)c1ccc2c3c1cccc3c(=O)n1c3ccccc3nc21`
1.0

residual activity strictly < 80% for this compound? `CC[n+]1c(/C=C/N(C)c2ccccc2)n(-c2ccccc2)c2ccc(-c3nc4ccccc4s3)cc21`
0.0

residual activity strictly < 80% for this compound? `N#CCCc1ccc2c(c1)-c1[nH]c3ccc([N+](=O)[O-])cc3c1CC(=O)N2`
1.0

residual activity strictly < 80% for this compound? `Cc1ccc(S(=O)(=O)/C=C/C#N)cc1`
0.0

residual activity strictly < 80% for this compound? `CO[C@H]1C[C@@H]2CC[C@@H](C)[C@@](O)(O2)C(=O)C(=O)N2CCCC[C@H]2C(=O)O[C@H]([C@H](C)C[C@@H]2CC[C@@H](O)[C@H](OC)C2)CC(=O)[C@H](C)/C=C(\C)[C@@H](O)[C@@H](OC)C(=O)[C@H](C)C[C@H](C)/C=C/C=C/C=C/1C`
0.0

residual activity strictly < 80% for this compound? `Cn1nc2c3c(cccc31)C(=O)c1ccccc1-2`
1.0

residual activity strictly < 80% for this compound? `CN(C)CCCn1cc(C2=C(c3c[nH]c4ccccc34)C(=O)NC2=O)c2ccccc21`
1.0

residual activity strictly < 80% for this compound? `Ic1cccc(CSc2nnc(-c3ccncc3)o2)c1`
0.0

residual activity strictly < 80% for this compound? `NC(=O)c1ccc2[nH]c(-c3ccc(Oc4ccc(Cl)cc4)cc3)nc2c1`
0.0

residual activity strictly < 80% for this compound? `O=C(Nc1cccc(Nc2cc(Nc3cccc(C(F)(F)F)c3)ncn2)c1)C1CC1`
0.0

residual activity strictly < 80% for this compound? `COc1ccc(OC)c2c(=S)c3ccccc3[nH]c12`
0.0
